Test: absolute recovery over vacuum-assisted evaporative concentration; higher = better recovery
Conditions: wastewater influent; enrichment method: VEC
measured quantity: absolute recovery (%)
Entry rule: numbers only, all in %.

Field: example entries. Status: answers known.
COP(=O)(OC)SCn1c(=O)oc2cc(Cl)cnc21 [Azamethiphos] : 67
CCCN(CCC)c1c([N+](=O)[O-])cc(S(N)(=O)=O)cc1[N+](=O)[O-] [Oryzalin] : 91.7
Cc1cc(C)cc(OCC2CNC(=O)O2)c1 (stereo not given) [Metaxalone] : 99.2
Cc1cc(Cl)ccc1OCC(=O)[O-] [MCPA] : 103

Please look at the following molecule next.
Q: Determine its reported absolute recovery: CC(Oc1ccc(Oc2ncc(C(F)(F)F)cc2Cl)cc1)C(=O)[O-] (stereo not given) [Haloxyfop]
Result: 95.4
